Test system: LOC_OS01G70970-cb002
Experiment: thermal shift delta Tm vs DMSO control; higher = stronger stabilization (binding);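 note: purified Escherichia coli-expressed rice kinase domain construct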
Conditions: 12.5 µM; protein concentration 2 µM
Label rule, in plain words: thermal shift delta Tm of 0.5 °C and up is yes (1), under 0.5 °C is no (0).

Answered cases to consult:
Nc1nc(N)c2nc(-c3cccc(O)c3)c(-c3cccc(O)c3)nc2n1
no (0)
CCn1c(C(=O)N(C2CC2)C2CC2)cc2c3c(ncn3C)c(Nc3cc(C)n(C)n3)nc21
no (0)
CCCS(=O)(=O)Nc1ccc(F)c(C(=O)c2c[nH]c3ncc(-c4ccc(Cl)cc4)cc23)c1F
yes (1)

Task item: Say whether Cn1cnc2c(F)c(Nc3ccc(Br)cc3F)c(C(=O)NOCCO)cc21 shows thermal shift delta Tm of 0.5 °C or more.
Reply: no (0)

Task item: Then this molecule: Cc1cn(-c2cc(NC(=O)c3ccc(C)c(Nc4nccc(-c5cccnc5)n4)c3)cc(C(F)(F)F)c2)cn1
Reply: no (0)

Task item: // next record Cc1cnc(Nc2ccc(N3CCN(C)CC3)cc2)nc1Nc1cccc(S(=O)(=O)NC(C)(C)C)c1
Reply: yes (1)

Task item: Check CN1CCN(c2ccc3nc(-c4c(N)c5c(F)cccc5[nH]c4=O)[nH]c3c2)CC1 too.
Reply: yes (1)

Task item: What would you report for CCNC(=O)Nc1ccc(-c2nc3c(c(N4CCOC[C@@H]4C)n2)CCN(C2COC2)C3)cc1 ?
Reply: no (0)

----------
Tested on: LOC_OS01G52050-cb004
Sequence (as listed by the source): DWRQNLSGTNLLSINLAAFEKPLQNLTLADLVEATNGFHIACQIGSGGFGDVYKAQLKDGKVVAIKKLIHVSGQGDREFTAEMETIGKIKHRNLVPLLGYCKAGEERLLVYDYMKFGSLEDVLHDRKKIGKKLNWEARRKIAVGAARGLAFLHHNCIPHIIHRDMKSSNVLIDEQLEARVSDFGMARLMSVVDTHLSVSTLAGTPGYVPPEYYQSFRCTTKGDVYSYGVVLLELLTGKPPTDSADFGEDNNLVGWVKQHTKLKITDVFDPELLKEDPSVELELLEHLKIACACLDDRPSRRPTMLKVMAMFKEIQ
Assay: thermal shift delta Tm vs DMSO control; higher = stronger stabilization (binding)
Details: 12.5 µM; protein concentration 2 µM
experimentalReadout: thermal shift delta Tm (°C)
Give bare numbers, in °C.

N[C@@H]1CCCN(c2c(/C=C3\SC(=O)NC3=O)cccc2-c2ccccc2)C1
-0.01
CO[C@@H](C)Cn1c(=O)n(C)c2cnc3ccc(-c4cncc(C(C)(C)O)c4)cc3c21
1.9

Please report thermal shift delta Tm for every entry that follows.
1. O=C(O)c1ccc2c3c1cccc3c(=O)n1c3ccccc3nc21
2. Cc1nc(Nc2ncc(C(=O)Nc3c(C)cccc3Cl)s2)cc(N2CCN(CCO)CC2)n1
3. CC(C)(CO)n1cc(C(=O)c2cncc(NC(=O)Cc3ccc(Cl)cn3)c2)c2cnc(N)nc21
4. COc1cc2ncnc(Nc3cccc(Cl)c3)c2cc1OC
5. CSc1cccc(Nc2ncc3cc(-c4c(Cl)cccc4Cl)c(=O)n(C)c3n2)c1
6. Cn1c(=O)c(Oc2ccc(F)cc2F)cc2cnc(NC(CCO)CCO)nc21

Reply:
1.18
0.79
2.82
1.69
0.18
0.02

State recorded thermal shift delta Tm for all listed compounds.
1. CNC(=O)c1ccc(-c2cnc3ncc(Cc4ccc5ncccc5c4)n3n2)cc1F
2. Cn1sc(=O)n(Cc2ccccc2)c1=O
3. Nc1nc2cc(-c3ccc4ncc(C(=O)N5CCOCC5)n4c3)ccc2o1

Reply:
1. 0.32
2. -0.28
3. 3.87

----------
Give thermal shift delta Tm for every item shown.
Test system: LOC_OS04G38480-cb003
Sequence (whole entry): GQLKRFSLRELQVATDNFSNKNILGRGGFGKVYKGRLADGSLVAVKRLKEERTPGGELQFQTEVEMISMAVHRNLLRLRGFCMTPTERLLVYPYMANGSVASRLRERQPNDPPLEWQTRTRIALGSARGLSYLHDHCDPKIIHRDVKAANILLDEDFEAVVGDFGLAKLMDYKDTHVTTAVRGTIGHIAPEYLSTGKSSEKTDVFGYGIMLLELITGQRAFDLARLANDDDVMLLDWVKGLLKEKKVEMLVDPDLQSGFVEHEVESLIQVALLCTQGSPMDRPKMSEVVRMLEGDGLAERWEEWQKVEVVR
Assay: thermal shift delta Tm vs DMSO control; higher = stronger stabilization (binding)
Settings: 12.5 µM; protein concentration 2 µM
Where a name gives a salt, the structure may show the parent alone.
Numbers only, in °C.

Nc1nc2cc(-c3ccc4ncc(C(=O)N5CCOCC5)n4c3)ccc2o1 [Serabelisib (INK-1117,MLN-1117,TAK-117)]
0.6
Cc1cccc(Nc2nc(NC3CCCCC3N)ncc2C(N)=O)c1 (stereo unspecified)
1.83
Oc1c(F)cc(-c2cnccc2-c2ccc(N3CCOCC3)cc2)cc1F
0.6
C[C@@H](Oc1cc(-c2cnn(C3CCNCC3)c2)cnc1N)c1c(Cl)ccc(F)c1Cl
3.79
CCNc1nc(Nc2cc(F)c(C(=O)N3CCOCC3)cc2OC)ncc1C(F)(F)F
1.15

# return thermal shift delta Tm for each item in the list
1. COc1ccc(-c2cc3c(C)nc(N)nc3n([C@H]3CC[C@H](OCCO)CC3)c2=O)cn1
2. C=CCc1ccc(O)c(-c2ccc(O)c(CC=C)c2)c1 [Honokiol]
3. Cc1cc(C)c(/C=C2\C(=O)Nc3ccccc32)[nH]1 [Semaxanib (SU5416)]
4. O=c1ccc2ccc(O)c(O)c2o1 [Daphnetin]
5. CCCCCCCCCC(=O)CC(O)S(=O)(=O)O (stereo unspecified) [Sodium Houttuyfonate]
6. CNS(=O)(=O)Nc1nccc(Cc2c(C)c3ccc(Oc4ncccn4)cc3oc2=O)c1F

Reply:
1. 1.08
2. 1.32
3. 2.87
4. 1.96
5. 1.54
6. 0.35

Hi there! I need thermal shift delta Tm for each item below, if you can.
1. CN1CCN(c2ccc3nc(-c4c(N)c5c(F)cccc5[nH]c4=O)[nH]c3c2)CC1 [Dovitinib (TKI-258) Dilactic Acid]
2. O=C(O)c1ccc(-c2c[nH]c3ncc(-c4ccccc4)cc23)cc1C1CCCC1

Reply:
1.48
4.2

Would you mind giving thermal shift delta Tm for every compound in the list below?
1. N#Cc1cnc(Nc2cc(NC[C@H]3CNCCO3)c(C(F)(F)F)cn2)cn1
2. O=C(Nc1cccc(C(F)(F)F)c1)c1cccc2cc(Oc3cc(CO)ncn3)ccc12
3. Nc1nc(N)c2nc(-c3cccc(O)c3)c(-c3cccc(O)c3)nc2n1
4. CCOc1cn(-c2ccc(F)cc2C)nc1C(=O)Nc1ccc(Oc2ccnc3cc(OC)c(OC)cc23)c(F)c1
5. C=CC(=O)Nc1cc(Nc2nccc(-c3c[nH]c4ccccc34)n2)c(OC)cc1N(C)CCN(C)C
6. Cc1ncc(-c2ccnc(Nc3ccc(S(C)(=O)=O)cc3)n2)n1C(C)C

Reply:
1.02
1.4
1.12
2.19
2.42
2.87

For each of the items listed, what is its thermal shift delta Tm?
1. CN1CCC(CNc2ccc3ncc(-c4cccc(OC(F)(F)F)c4)n3n2)CC1 [SGI-1776 free base]
2. CC(C)c1ccc2oc3nc(N)c(C(=O)O)cc3c(=O)c2c1 [Amlexanox]
3. C[C@H](Nc1ncnc2nc[nH]c12)c1cc2cccc(Cl)c2c(=O)n1-c1ccccc1 [Duvelisib (IPI-145, INK1197)]
4. CN1c2ccccc2C(=O)Nc2cnc(Nc3ccc(N4CCC(O)CC4)cc3)nc21
5. Cc1ccc(F)c(NC(=O)Nc2ccc(-c3cccc4[nH]nc(N)c34)cc2)c1 [Linifanib (ABT-869)]
6. CN1CCN(c2ccc(-c3ccncc3-c3cc(F)c(O)c(F)c3)cc2)CC1
7. C=CC(=O)Nc1cccc(Oc2nc(Nc3ccc(N4CCN(C)CC4)cc3OC)ncc2Cl)c1
8. CCN1CCN(Cc2ccc(C(=O)Nc3ccc(C)c(Oc4ccc5c(c4)CC(=O)N5)c3)cc2C(F)(F)F)CC1

Reply:
1. 1.08
2. 1.28
3. 0.01
4. 3.65
5. 0.22
6. 1.07
7. -0.58
8. 1.7

For each listed entry, give its thermal shift delta Tm.
1. N[C@@H]1CCCN(c2c(/C=C3\SC(=O)NC3=O)cccc2-c2ccccc2)C1
2. OCCn1cc(-c2ccc3c(c2)CC/C3=N\O)c(-c2ccncc2)n1
3. Nc1ncnc2c1c(-c1cnc3[nH]ccc3c1)nn2C1CCCC1
4. N#Cc1c(Oc2ccc(F)c(NC(=O)Cc3cccc(C(F)(F)F)c3)c2)ccc2nc(NC(=O)C3CC3)sc12
5. Cc1cc(O)c(-c2ccc([C@@H](C)CN)cc2)c2c1[nH]c(=O)c1sccc12 [OTS514 hydrochloride]

Reply:
1. 0.39
2. 0.49
3. 1.28
4. 1.92
5. 1.65

Respectfully, I request thermal shift delta Tm for each entry included below.
1. CCc1ccc(/C=C2/SC(=S)NC2=O)cc1
2. Cc1[nH]c(/C=C2\C(=O)Nc3ccc(S(=O)(=O)Cc4c(Cl)cccc4Cl)cc32)c(C)c1C(=O)N1CCC[C@@H]1CN1CCCC1
3. CC1(C)OC(=O)C=C[C@]2(C)[C@H]3CC[C@@]4(C)[C@H](c5ccoc5)OC(=O)[C@H]5O[C@]54[C@]3(C)C(=O)C[C@@H]12 [Obacunone]
4. CCCCNc1ncc(-c2ccc(CN3CCOCC3)cn2)c(NC2CCC(O)CC2)n1 (stereo unspecified)

Reply:
1.19
2.55
1.66
3.1
